- experiment.notes: Drug concentration in plasma of rat after subcutaneous administration of microcapsule
- Type: in vivo
- condition.context: sc; 25 mg microcapsule of Example 1, subcutaneous at rear neck, 9 week old male SD rat, plasma from tail vein, after 3 weeks, n = 4
experimental.readout: concentration at 3 weeks (ng/mL)
The response must be a number in ng/mL with no trailing unit.

CCc1ccc(CCOc2ccc(CC3SC(=O)NC3=O)cc2)nc1 (centres unmarked)    30

Could you now consider this next compound?
Challenge: Item `CCOc1nc2cccc(C(=O)O)c2n1Cc1ccc(-c2ccccc2-c2nnn[nH]2)cc1` has what recorded concentration at 3 weeks?
Response given: 4
